Every entry's value here was drawn from ChEMBL document CHEMBL1154855.

# Assay Remarks: Cytotoxicity against Herpes simplex virus 2 G infected HEL cells by trypan blue exclusion method
# Type: cell-based
# Protocol Conditions: human, HEL cells infected with herpes simplex virus 2 G
Outcome Measure: CC50

> print(dat)
                    chemical.smiles    result
1  Nc1nc2c(ncn2COC(CO)CO)c(=O)[nH]1  > 100 µM

Next:
Qu. Quick one: give measured CC50 for NC(=O)c1ncn([C@@H]2O[C@H](CO)[C@@H](O)[C@H]2O)n1
Ans. > 250 µM

---

Recorded CC50 values for a group of compounds are listed next.
# Assay Remarks: Cytotoxicity against Vaccinia virus infected HEL cells by trypan blue exclusion method
# Format: cell-based
# Protocol Conditions: human, HEL cells infected with vaccinia virus

> print(dat)
                                   compound    result
1  NC(=O)c1ncn([C@@H]2O[C@H](CO)[C@@H](O)[C@H]2O)n1 [RIBAVIRIN]  > 250 µM

Next:
Qu. Quick one: give measured CC50 for Nc1nc2c(ncn2COC(CO)CO)c(=O)[nH]1 [GANCICLOVIR]
Ans. > 100 µM
